- method: Clearance in CD1 mouse at 3.0 mg/kg, iv
- Format: ADME, organism-based
- Parameters: dose 3 mg/kg, route intravenous
- condition parameters: in vivo
Reported clearance values follow for various compounds
State the value, then name its unit.

The following compounds have reported results that may help.
- NC(=O)c1cccc2[nH]c(-c3ccc(-c4ncc[nH]4)cc3)nc12: 533 mL/min/kg
- NC(=O)c1cccc2[nH]c(-c3ccc(-c4ccncc4)cc3)nc12: 167 mL/min/kg
- NC(=O)c1cccc2[nH]c(-c3ccc(-c4nnco4)cc3)nc12: 55 mL/min/kg

stdin: Retrieve clearance measured for NC(=O)c1cccc2[nH]c(-c3ccc(-c4cnco4)cc3)nc12 and print it.
stdout: 300 mL/min/kg

stdin: Retrieve clearance measured for NC(=O)c1cccc2[nH]c(-c3ccc(-c4cccnc4)cc3)nc12 and print it.
stdout: 147 mL/min/kg

stdin: Retrieve clearance measured for NC(=O)c1cccc2[nH]c(-c3ccc(-c4ccccn4)cc3)nc12 and print it.
stdout: 123 mL/min/kg

---

- method: Cmax in CD1 mouse at 10 mg/kg, po
- Assay type: ADME, organism-based
- Set-up: dose 10 mg/kg, route oral
- condition parameters: in vivo
Reported Cmax values follow for various molecules
Your answer should be a plain number; it is taken to be in nM.

• NC(=O)c1cccc2[nH]c(-c3ccc(-c4cccnc4)cc3)nc12 = 2200

Continue with the next molecule.
stdin: Retrieve Cmax measured for NC(=O)c1cccc2[nH]c(-c3ccc(-c4nnco4)cc3)nc12 and print it.
stdout: 2700

---

- method: AUC in CD1 mouse at 3.0 mg/kg, iv
- Format: ADME, organism-based
- Parameters: dose 3 mg/kg, route intravenous
- condition parameters: plasma
Reported AUC values follow for various compounds
Your answer should be a plain number; it is taken to be in µM·h.

The following compounds have reported results that may help.
• NC(=O)c1cccc2[nH]c(-c3ccc(-c4ccncc4)cc3)nc12 = 0.94
• NC(=O)c1cccc2[nH]c(-c3ccc(-c4cccnc4)cc3)nc12 = 1.1
• NC(=O)c1cccc2[nH]c(-c3ccc(-c4ccccn4)cc3)nc12 = 1.3
• NC(=O)c1cccc2[nH]c(-c3ccc(-c4ncc[nH]4)cc3)nc12 = 0.31
• NC(=O)c1cccc2[nH]c(-c3ccc(-c4cnco4)cc3)nc12 = 0.54

Continue with the next compound.
stdin: Retrieve AUC measured for NC(=O)c1cccc2[nH]c(-c3ccc(-c4nnco4)cc3)nc12 and print it.
stdout: 3

---

- method: Volume of distribution in CD1 mouse at 3.0 mg/kg, iv
- Type: ADME, organism-based
- Parameters: dose 3 mg/kg, route intravenous
- condition parameters: in vivo
Reported log10(Vd) values follow for various compounds
Please interpret these as log10 of Vd where Vd is in L/kg.

stdin: Retrieve log10(Vd) measured for NC(=O)c1cccc2[nH]c(-c3ccc(-c4cnco4)cc3)nc12 and print it.
stdout: 1.41

stdin: Retrieve log10(Vd) measured for NC(=O)c1cccc2[nH]c(-c3ccc(-c4nnco4)cc3)nc12 and print it.
stdout: 0.23

stdin: Retrieve log10(Vd) measured for NC(=O)c1cccc2[nH]c(-c3ccc(-c4cccnc4)cc3)nc12 and print it.
stdout: 0.86

stdin: Retrieve log10(Vd) measured for NC(=O)c1cccc2[nH]c(-c3ccc(-c4ccccn4)cc3)nc12 and print it.
stdout: 0.82

stdin: Retrieve log10(Vd) measured for NC(=O)c1cccc2[nH]c(-c3ccc(-c4ncc[nH]4)cc3)nc12 and print it.
stdout: 1.41

stdin: Retrieve log10(Vd) measured for NC(=O)c1cccc2[nH]c(-c3ccc(-c4ccncc4)cc3)nc12 and print it.
stdout: 0.77
